target: CSF-1R (Homo sapiens (Human), UniProt P07333); assay: Biochemical HTRF kinase assay, CSF-1R; conditions: Table 2; recombinant human CSF-1R;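 note: enzyme incubated with inhibitor plus a substrate and ATP mix for one hour at room temperature before HTRF detection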
Sequence (P07333 20-972): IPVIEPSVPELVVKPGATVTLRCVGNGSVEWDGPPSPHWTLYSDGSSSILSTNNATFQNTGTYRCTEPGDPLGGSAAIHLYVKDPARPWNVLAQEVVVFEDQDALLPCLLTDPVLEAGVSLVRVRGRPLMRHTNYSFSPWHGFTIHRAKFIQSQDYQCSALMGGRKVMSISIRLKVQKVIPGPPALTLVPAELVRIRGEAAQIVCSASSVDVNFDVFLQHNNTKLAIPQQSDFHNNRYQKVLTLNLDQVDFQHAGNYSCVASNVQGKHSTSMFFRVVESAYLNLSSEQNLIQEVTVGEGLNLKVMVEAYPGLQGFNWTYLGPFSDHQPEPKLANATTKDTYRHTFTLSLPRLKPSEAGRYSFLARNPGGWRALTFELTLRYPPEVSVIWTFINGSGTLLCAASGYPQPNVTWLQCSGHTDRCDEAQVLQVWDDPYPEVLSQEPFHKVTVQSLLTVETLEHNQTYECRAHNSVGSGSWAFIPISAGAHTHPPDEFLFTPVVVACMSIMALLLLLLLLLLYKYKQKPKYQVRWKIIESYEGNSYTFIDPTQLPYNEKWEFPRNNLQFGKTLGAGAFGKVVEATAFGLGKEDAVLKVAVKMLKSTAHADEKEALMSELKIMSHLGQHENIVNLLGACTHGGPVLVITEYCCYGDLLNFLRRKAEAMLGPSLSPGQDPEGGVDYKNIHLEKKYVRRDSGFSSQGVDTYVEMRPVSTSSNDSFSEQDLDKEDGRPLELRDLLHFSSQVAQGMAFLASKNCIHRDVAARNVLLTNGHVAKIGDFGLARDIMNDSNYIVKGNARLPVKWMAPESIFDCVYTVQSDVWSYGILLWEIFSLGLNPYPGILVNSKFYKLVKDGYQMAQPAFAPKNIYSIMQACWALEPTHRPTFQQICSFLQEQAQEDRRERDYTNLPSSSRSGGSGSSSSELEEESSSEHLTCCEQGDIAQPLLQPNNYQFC
For each of the molecules below, state its IC50.

Task: Suppose we examine the molecule COc1cnc2c(Cc3cnc(OCc4ccc(=O)n(C)c4)c(OC)c3)ccnc2c1 ; what IC50 value has been reported?
Output: 9.3 nM

Task: IC50 lookup needed for [2H]C([2H])([2H])Oc1ccc(COc2ncc(Cc3ccnc4cc(OC)cnc34)cc2OC)nc1 , thanks.
Output: 6.7 nM

Task: Look up IC50 for this molecule: COc1ccc(COc2ncc(Cc3ccnc4cc(N5CC(OC)C5)cnc34)cc2OC)nc1
Output: 7.1 nM

Task: Dear colleague, I am looking for the recorded IC50 of the following molecule: COc1cnc2c(Cc3cnc(OCc4cc5n(n4)CCOC5C)c(OC)c3)ccnc2c1 (stereo not shown)
Output: 4.7 nM
